Target: T1, human complement component C5 (human, UniProt P01031 19-673; P01031 678-1676)
T1 construct: mature; Mature C5 is a disulphide-linked beta and alpha chain cut from one precursor; Terbium-labelled in the FRET assays, biotinylated in part of the phage ELISA; also called human C5; C5-Tb
T1 sequence (P01031 19-673 limits assumed, chain 1 of 2): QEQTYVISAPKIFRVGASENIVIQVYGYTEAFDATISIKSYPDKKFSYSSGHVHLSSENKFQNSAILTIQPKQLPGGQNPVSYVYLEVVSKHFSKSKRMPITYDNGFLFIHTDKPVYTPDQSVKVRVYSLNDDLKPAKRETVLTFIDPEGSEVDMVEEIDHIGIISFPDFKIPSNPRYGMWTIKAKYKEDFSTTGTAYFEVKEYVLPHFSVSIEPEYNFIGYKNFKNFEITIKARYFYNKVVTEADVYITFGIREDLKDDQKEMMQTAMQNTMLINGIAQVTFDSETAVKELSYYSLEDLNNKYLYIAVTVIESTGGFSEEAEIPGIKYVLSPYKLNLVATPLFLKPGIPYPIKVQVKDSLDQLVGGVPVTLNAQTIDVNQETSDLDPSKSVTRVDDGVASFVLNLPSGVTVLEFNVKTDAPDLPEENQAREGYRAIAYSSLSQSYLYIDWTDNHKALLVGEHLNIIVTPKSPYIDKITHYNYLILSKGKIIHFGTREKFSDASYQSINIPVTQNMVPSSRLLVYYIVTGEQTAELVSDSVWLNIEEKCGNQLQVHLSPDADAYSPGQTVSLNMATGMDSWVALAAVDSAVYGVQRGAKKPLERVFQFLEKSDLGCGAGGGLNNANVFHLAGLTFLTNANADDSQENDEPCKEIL
T1 sequence (P01031 678-1676 limits assumed, chain 2 of 2): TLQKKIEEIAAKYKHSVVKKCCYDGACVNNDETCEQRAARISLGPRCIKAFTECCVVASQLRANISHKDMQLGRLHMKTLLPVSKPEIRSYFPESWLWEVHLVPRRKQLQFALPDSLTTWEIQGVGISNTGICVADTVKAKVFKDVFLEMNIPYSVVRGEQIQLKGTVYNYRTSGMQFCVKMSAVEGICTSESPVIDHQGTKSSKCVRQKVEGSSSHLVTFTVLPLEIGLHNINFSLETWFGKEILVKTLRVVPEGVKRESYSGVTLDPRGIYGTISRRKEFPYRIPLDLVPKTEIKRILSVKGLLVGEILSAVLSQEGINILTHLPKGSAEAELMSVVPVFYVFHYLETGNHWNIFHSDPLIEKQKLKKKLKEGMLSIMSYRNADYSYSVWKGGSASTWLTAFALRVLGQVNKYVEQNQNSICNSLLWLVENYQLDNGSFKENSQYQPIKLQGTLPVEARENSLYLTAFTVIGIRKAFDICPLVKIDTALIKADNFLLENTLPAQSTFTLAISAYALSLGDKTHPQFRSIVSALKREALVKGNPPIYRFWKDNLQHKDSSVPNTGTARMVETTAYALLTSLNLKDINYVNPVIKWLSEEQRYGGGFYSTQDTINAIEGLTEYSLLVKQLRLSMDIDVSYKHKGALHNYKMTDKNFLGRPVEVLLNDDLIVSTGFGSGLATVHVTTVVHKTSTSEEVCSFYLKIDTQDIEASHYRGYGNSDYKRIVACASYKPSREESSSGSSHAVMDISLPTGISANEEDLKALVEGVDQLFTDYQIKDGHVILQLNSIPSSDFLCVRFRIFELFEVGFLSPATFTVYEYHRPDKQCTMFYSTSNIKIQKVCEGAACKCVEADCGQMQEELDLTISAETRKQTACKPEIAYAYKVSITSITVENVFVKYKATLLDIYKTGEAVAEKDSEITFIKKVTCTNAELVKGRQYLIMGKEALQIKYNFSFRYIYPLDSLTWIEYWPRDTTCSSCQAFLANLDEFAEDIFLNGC
Assay: SPR, cysteines reduced and capped with iodoacetamide; K92, cysteines reduced and capped with iodoacetamide
Ends that are not written are not given here. * marks the point of attachment. Cam = NC(=O)C*
Measurement Type: pKd
One number for each entry, as −log10 of the molar value.

Task item: For TC(Cam)PEGWSEC(Cam)GVAIYGYEC(Cam)GRWGC(Cam)GHFLNSGPNISPYVST (also called K92 (loss of disulphide bonds)) [K92, reduced and cysteines capped with iodoacetamide] , what is its reported pKd?
Reply: 5.70

Attribution: patent US20240024520A1
